B1: EEHEE_rd4_0763 (parent)
chain: LTVHVGNVTYHFDNPEQAEEWAKRMAKKYQGQIHVKDGQFRIE

Variants of: B1
Assay Procedure: folding stability dG (cDNA display proteolysis); higher = more stable
Condition Info: PBS, room temperature
The following variants are shown together with reported folding stability dG values.
Give the quantity in kcal/mol, number only.

# count of solved cases: 2
- Mutations: "L1C"
  Unit String: "kcal/mol"
  folding stability dG: 2.7
- Mutations: "H34Q"
  Unit String: "kcal/mol"
  folding stability dG: 1.61

Exercise: Endpoint output: folding stability dG of `D37V` . Value?
Key: 0.669

Exercise: Can you check `P15Q` next?
Key: 1.6

Exercise: # repeat for `M25R`
Key: 0.567
